target: Rab6B^Q72L, GTPase domain (residues 8-176), constitutively active mutant (mouse, UniProt P61294 8-176, Q72L); experiment: ITC
Sequence (P61294 8-176 Q72L): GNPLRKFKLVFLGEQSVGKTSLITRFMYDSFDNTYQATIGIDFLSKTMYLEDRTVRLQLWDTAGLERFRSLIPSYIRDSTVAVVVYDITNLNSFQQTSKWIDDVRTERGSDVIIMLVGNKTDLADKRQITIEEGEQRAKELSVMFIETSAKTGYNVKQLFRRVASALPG
Measured Quantity: Kd
Remember to follow the number with its unit.

## Task Consider the binder ELKS1_RBD S868A (domain or fragment) RKHLEEVLEMKQEALLAAIAEKDANIALLELSSSKKKTQEEVAALKREKDRLVQQLKQQTQNRMKLMADNYEDD and give its measured Kd.
## Result 26 µM
